Quick list: Percent Lepidopteran Damage to Romaine Lettuce 72 hr per entry.
- Tested on: lepidopteran larvae: cabbage loopers (Trichoplusia ni) and beet armyworms (Spodoptera exigua)
- Assay type: in vivo
- condition context: leaf discs; 72 hr; insecticide + buffered amine oxide system PO4, 12, 200:1; PPM: Chlorantranilopril 60, Acephate 70, Methoxyfenozide 100, Spinosad 30, Permethrin 10, Indoxacarb 50
// units = %; emit number, no label

Task item: Look up and state reported Percent Lepidopteran Damage to Romaine Lettuce 72 hr for `CNC(=O)c1cc(Cl)cc(C)c1NC(=O)c1cc(Br)nn1-c1ncccc1Cl`
Reply: 13.0

Task item: Look up and state reported Percent Lepidopteran Damage to Romaine Lettuce 72 hr for `COC(=O)N(C(=O)N1CO[C@@]2(C(=O)OC)Cc3cc(Cl)ccc3C2=N1)c1ccc(OC(F)(F)F)cc1`
Reply: 71.0

Task item: Look up and state reported Percent Lepidopteran Damage to Romaine Lettuce 72 hr for CC1(C)C(C=C(Cl)Cl)C1C(=O)OCc1cccc(Oc2ccccc2)c1 (centres unmarked)
Reply: 21.0

Task item: Look up and state reported Percent Lepidopteran Damage to Romaine Lettuce 72 hr for COP(=O)(NC(C)=O)SC (centres unmarked) [Acephate]
Reply: 72.0

Task item: Look up and state reported Percent Lepidopteran Damage to Romaine Lettuce 72 hr for COc1cccc(C(=O)NN(C(=O)c2cc(C)cc(C)c2)C(C)(C)C)c1C [Methoxyfenozide]
Reply: 73.0
